Taken from the supplement of paper PMC10899765.

Test system: MCF10A
ASSAY_TEXT: percent viability (nuclei count relative to siNT); higher = more viable cells
STUDY_CONDITIONS: 20 nM; 72 h
percent viability class ranges: category 1 (below 60%), category 2 (60% to below 90%), category 3 (90% or more)

1) UGCCCUGAGACUUUUGCUC [hsa-miR-7976] ... category 1
2) AUUCUUCCUGCCCUGGCUCCAU [hsa-miR-6875-3p] ... category 1
3) GUGGGUACGGCCCAGUGGGGGG [hsa-miR-1225-5p] ... category 3
4) GUGUUGAAACAAUCUCUACUG [hsa-miR-653] ... category 3
5) CAUAAAGUAGAAAGCACUACU [hsa-miR-142-5p] ... category 2
6) UUGGACGGUAAGGUUAAGCAA [hsa-miR-4804-5p] ... category 1
7) ACUUAAACGUGGAUGUACUUGCU [hsa-miR-302a-5p] ... category 3
8) GGUGGGGCAAUGGGAUCAGGU [hsa-miR-3151] ... category 1
9) UAUCGUAUCGUAUUGUAUUGU [hsa-miR-5686] ... category 3
10) AUUGACACUUCUGUGAGUAGA [hsa-miR-514a-3p] ... category 1
11) AAAUAUGAUGAAACUCACAGCUGAG [hsa-miR-4517] ... category 1
12) CCUCUUCCCCUUGUCUCUCCAG [hsa-miR-1236-3p] ... category 2
13) AAAAGUAAUUGCGGUCUUUGGU [hsa-miR-548j] ... category 2
14) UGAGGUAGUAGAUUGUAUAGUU [hsa-let-7f-5p] ... category 3
15) AGGGCCAGAGGAGCCUGGAGUGG [hsa-miR-4726-5p] ... category 1
16) GAAGGACACUGGUGUCAACGGCU [hsa-miR-8080] ... category 3
17) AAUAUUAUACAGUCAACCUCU [hsa-miR-656] ... category 2
18) UAAUCUCAGCUGGCAACUGUGA [hsa-miR-216a-5p] ... category 2
19) UUCACAGUGGCUAAGUUCCGC [hsa-miR-27a-3p] ... category 3
20) UCUGCACUGUGAGUUGGCUGGCU [hsa-miR-4793-3p] ... category 1
